Below, each entry is listed alongside its reported IC50.
assayed.system: GSK3α (GST-full length GSK3α) (Homo sapiens (Human))
Sequence (P49840 whole entry): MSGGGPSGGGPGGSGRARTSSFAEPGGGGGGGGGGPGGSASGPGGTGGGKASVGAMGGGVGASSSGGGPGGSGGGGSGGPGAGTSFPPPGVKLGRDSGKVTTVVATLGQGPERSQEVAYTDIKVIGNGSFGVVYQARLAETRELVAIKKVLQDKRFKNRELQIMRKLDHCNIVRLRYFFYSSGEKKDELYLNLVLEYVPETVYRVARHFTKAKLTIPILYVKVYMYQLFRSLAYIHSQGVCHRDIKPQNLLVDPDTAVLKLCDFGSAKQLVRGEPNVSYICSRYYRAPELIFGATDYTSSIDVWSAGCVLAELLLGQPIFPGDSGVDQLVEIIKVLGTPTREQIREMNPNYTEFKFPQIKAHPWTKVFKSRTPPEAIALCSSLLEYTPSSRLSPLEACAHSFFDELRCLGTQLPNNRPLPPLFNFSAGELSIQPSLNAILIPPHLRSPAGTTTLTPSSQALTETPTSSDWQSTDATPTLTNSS
test.summary: GSK3α TR-FRET kinase assay
Assay type: biochemical
test.conditions: 1 nM GSK3α, 4 μM ATP, 30 minute preincubation; geometric mean; read-out: GSK3-A TR-FRET BIOCHEMICAL (TR-FRET); GMean; IC50
test.readout: IC50

[[record]]
compound = "CCC1(c2cccc(-c3ccnc(C)c3F)c2)C2=C(CC(C)(C)NC2=O)Nc2n[nH]c(C(F)(F)F)c21 (centres unmarked)"
assay_value = "≤ 100 nM"

[[record]]
compound = "CCC1(c2cccc(S(C)(=O)=O)c2)C2=C(CC(C)(C)NC2=O)Nc2n[nH]c(C(F)(F)F)c21 (centres unmarked)"
assay_value = "≤ 100 nM"

[[record]]
compound = "CC[C@@]1(c2cccc(-c3ccnc(C)c3)c2)C2=C(CC(C)(C)NC2=O)Nc2n[nH]c(C(F)(F)F)c21"
assay_value = "≤ 100 nM"

[[record]]
compound = "CC[C@]1(c2cccc(N3CCCCC3)c2)C2=C(CC(C)(C)NC2=O)Nc2n[nH]c(C(F)(F)F)c21"
assay_value = "100 to 1000 nM"

[[record]]
compound = "CCC1(c2cccc(-c3cnn(C)c3)c2)C2=C(CC(C)(C)NC2=O)Nc2n[nH]c(C(F)(F)F)c21 (centres unmarked)"
assay_value = "≤ 100 nM"

[[record]]
compound = "CCC1(c2cccc(N3CCCC3)c2)C2=C(CC(C)(C)NC2=O)Nc2n[nH]c(C(F)(F)F)c21 (centres unmarked)"
assay_value = "≤ 100 nM"

[[record]]
compound = "CC[C@@]1(c2ccccc2)C2=C(C[C@](C)(COC)CC2=O)Nc2n[nH]cc21"
assay_value = "> 5000 nM"

[[record]]
compound = "CCC1(c2cccc(-c3ccnc4nc(C)ccc34)c2)C2=C(CC(C)(C)NC2=O)Nc2n[nH]cc21 (centres unmarked)"
assay_value = "100 to 1000 nM"

[[record]]
compound = "CCC1(c2cccc(Br)c2)C2=C(CC(C)(C)CC2=O)Nc2n[nH]cc21 (centres unmarked) [Compound 789312]"
assay_value = "≤ 100 nM"

[[record]]
compound = "CC[C@]1(c2cccc(-c3ccnc4c3CCC4)c2)C2=C(CC(C)(C)NC2=O)Nc2n[nH]c(C(F)(F)F)c21"
assay_value = "100 to 1000 nM"

[[record]]
compound = "CCC1(c2cccc(-c3cc(C)nnc3C)c2)C2=C(CC(C)(C)NC2=O)Nc2n[nH]c(C)c21 (centres unmarked)"
assay_value = "≤ 100 nM"

[[record]]
compound = "CCC1(c2cccc(-c3ccnc(C)c3)c2)C2=C(CC(C)(C)NC2=O)Nc2n[nH]c(C)c21 (centres unmarked) [Compound 948414]"
assay_value = "> 5000 nM"

[[record]]
compound = "CC[C@]1(c2cccc(N(C)C(C)=O)c2)C2=C(CC(C)(C)CC2=O)Nc2n[nH]cc21"
assay_value = "> 5000 nM"

[[record]]
compound = "CC[C@@]1(c2cccc(OC(C)C)c2)C2=C(CC(C)(C)CC2=O)Nc2n[nH]cc21"
assay_value = "1000 to 5000 nM"

[[record]]
compound = "CCC1(c2cccc(-c3ccnc(C)c3)c2)C2=C(CC3(CCCC3)NC2=O)Nc2n[nH]cc21 (centres unmarked)"
assay_value = "> 5000 nM"

[[record]]
compound = "CCC1(c2cccc(-c3cn(C)nc3C)c2)C2=C(CC(C)(C)N(C)C2=O)Nc2n[nH]cc21 (centres unmarked) [Compound 949008]"
assay_value = "1000 to 5000 nM"

[[record]]
compound = "CCC1(c2cccc(-c3ccncc3C)c2)C2=C(CC(C)(COC)NC2=O)Nc2n[nH]cc21 (mixture of isomers) [Compound 948127]"
assay_value = "100 to 1000 nM"

[[record]]
compound = "CCC1(c2ccccc2)C2=C(CCC(C)(C)C2=O)Nc2n[nH]cc21 (centres unmarked)"
assay_value = "100 to 1000 nM"

[[record]]
compound = "CC[C@@]1(c2ccccc2)C2=C(CC3(CCCC3)CC2=O)Nc2n[nH]cc21"
assay_value = "≤ 100 nM"

[[record]]
compound = "CC[C@@]1(c2cccc(-c3ccnc4c3CCC4)c2)C2=C(CC(C)(C)NC2=O)Nc2n[nH]cc21"
assay_value = "≤ 100 nM"

[[record]]
compound = "CCC1(c2cccc(-c3c(F)cncc3F)c2)C2=C(CC(C)(C)NC2=O)Nc2n[nH]cc21 (centres unmarked)"
assay_value = "1000 to 5000 nM"

[[record]]
compound = "CC1(C)CC(=O)C2=C(C1)Nc1n[nH]c(Br)c1C21CCc2c(F)cccc21 (centres unmarked)"
assay_value = "≤ 100 nM"

[[record]]
compound = "CC1(C)CC(=O)C2=C(C1)Nc1n[nH]c(C3(C(F)(F)F)CC3)c1C21CCc2c(F)cccc21 (centres unmarked) [Compound 816840]"
assay_value = "1000 to 5000 nM"

[[record]]
compound = "CC[C@]1(c2cccc(-c3ccncc3F)c2)C2=C(CC(C)(C)NC2=O)Nc2n[nH]cc21"
assay_value = "≤ 100 nM"

[[record]]
compound = "CC1(C)CC(=O)C2=C(C1)Nc1n[nH]c(C(F)(F)F)c1C21CCc2c(F)cccc21 (centres unmarked)"
assay_value = "1000 to 5000 nM"

[[record]]
compound = "CC[C@@]1(c2cccc(-c3ccnc(C)c3Cl)c2)C2=C(CC(C)(C)NC2=O)Nc2n[nH]cc21"
assay_value = "> 5000 nM"

[[record]]
compound = "CCC1(c2cccc(N3CCCC3)c2)C2=C(CC(C)(C)CC2=O)Nc2n[nH]c(C(F)(F)F)c21 (centres unmarked) [Compound 810506]"
assay_value = "≤ 100 nM"

[[record]]
compound = "CCC1(c2cccc(C(F)(F)F)c2)C2=C(CCN(c3ccc(C)cc3)C2=O)Nc2n[nH]cc21 (centres unmarked)"
assay_value = "≤ 100 nM"

[[record]]
compound = "CCC1(c2cccc(-c3ccncc3C)c2)C2=C(CC(C)(COC)NC2=O)Nc2n[nH]cc21 (centres unmarked) [Compound 948147]"
assay_value = "≤ 100 nM"


====

assayed.system: GSK3b (GST-full length GSK3b) (Homo sapiens (Human), UniProt P49841)
Sequence (P49841 whole entry): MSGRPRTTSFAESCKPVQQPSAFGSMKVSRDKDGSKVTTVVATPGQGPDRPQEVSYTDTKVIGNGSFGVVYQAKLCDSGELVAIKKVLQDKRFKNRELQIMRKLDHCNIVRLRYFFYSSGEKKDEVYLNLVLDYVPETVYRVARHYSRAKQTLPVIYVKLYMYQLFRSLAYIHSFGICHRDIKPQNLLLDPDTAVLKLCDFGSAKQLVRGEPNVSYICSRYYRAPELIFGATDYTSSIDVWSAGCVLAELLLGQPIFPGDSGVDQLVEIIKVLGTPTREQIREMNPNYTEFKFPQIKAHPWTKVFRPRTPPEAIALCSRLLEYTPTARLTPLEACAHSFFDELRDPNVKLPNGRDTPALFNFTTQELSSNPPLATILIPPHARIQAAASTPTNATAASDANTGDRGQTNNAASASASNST
test.summary: GSK3b TR-FRET kinase assay
Type: biochemical
test.conditions: 1 nM GSK3b, 2 μM ATP, 30 minute preincubation, Table 16; read-out: GSK3-B TR-FRET BIOCHEMICAL (TR-FRET)
pIC50: −log10 of the molar value.
Below, each entry is listed alongside its reported pIC50.
test.readout: pIC50

[[record]]
compound = "CC1(C)CC(=O)C2=C(C1)Nc1n[nH]cc1C21CCN(S(=O)(=O)c2ccc(OC(F)F)cc2)CC1 [Compound 947246]"
assay_value = "≥ 7.00"

[[record]]
compound = "CCC1(c2cccc(-c3c(F)cncc3OC)c2)C2=C(Nc3n[nH]cc31)C(F)C(C)(C)CC2=O (stereo not shown) [Compound 948545]"
assay_value = "≥ 7.00"

[[record]]
compound = "Cc1nccc([C@H]2CC[C@]3(CC2)C2=C(CC(C)(C)CC2=O)Nc2n[nH]cc23)c1C [Compound 950477]"
assay_value = "6.00 to 7.00"

[[record]]
compound = "CC[C@]1(c2cccc(-c3ccncc3)c2)C2=C(Nc3n[nH]cc31)[C@@H](F)C(C)(C)CC2=O [Compound 959344]"
assay_value = "< 5.30"

[[record]]
compound = "CC[C@@]1(c2cccc(-c3ccnc(CCO)c3)c2)C2=C(CC(C)(C)CC2=O)Nc2n[nH]cc21 [Compound 947816]"
assay_value = "< 5.30"

[[record]]
compound = "CCC1(c2cccc(S(=O)(=O)C3CC(F)(F)C3)c2)C2=C(CC(C)(C)CC2=O)Nc2n[nH]cc21 (stereo not shown) [Compound 944019]"
assay_value = "≥ 7.00"

[[record]]
compound = "CC1(C)CC(=O)C2=C(C1)Nc1n[nH]cc1C21CCC(c2ccccc2)CC1 (stereo not shown) [Compound 877320]"
assay_value = "≥ 7.00"


====

assayed.system: GSK3b (GST-full length GSK3b) (Homo sapiens (Human), UniProt P49841)
test.summary: GSK3b TR-FRET kinase assay
Assay type: biochemical
test.conditions: 1 nM GSK3b, 2 μM ATP, 30 minute preincubation, Table 16; read-out: GSK3-B TR-FRET BIOCHEMICAL (TR-FRET)
Below, each entry is listed alongside its reported IC50.
test.readout: IC50

[[record]]
molecule = "CCC1(c2cccc(-c3cnnn3C)c2)C2=C(CC(C)(C)CC2=O)Nc2n[nH]cc21 (stereo not shown) [Compound 947824]"
assay_value = "1 to 5 µM"

[[record]]
molecule = "CC1(C)CC(=O)C2=C(C1)Nc1n[nH]cc1C21CC(C)(C)C1"
assay_value = "0.1 to 1 µM"

[[record]]
molecule = "CO[C@H]1CC[C@@]2(CC1)C1=C(CC(C)(C)CC1=O)Nc1n[nH]cc12"
assay_value = "0.1 to 1 µM"

[[record]]
molecule = "CCC1(c2cccc(-c3c(F)cncc3OC)c2)C2=C(Nc3n[nH]cc31)C(F)C(C)(C)CC2=O (stereo not shown) [Compound 948548]"
assay_value = "0.1 to 1 µM"


The values you see were collected from patent US20250313563A1.
